Cited source: patent US20230340090A1

Each item that follows carries a reported OD (O.D. (405 nm)).
Biological target: T1, TP-25 peptide (human)
T1 sequence (peptide, biotinylated): VMDVFIPKPFRAFAF
Experiment: indirect ELISA, biotinylated 15-mer on streptavidin plate
The answer should be a number; do not append a unit.

1. ACI-7062-412E12-Ab1 (antibody, IgG1, V domains shown) VH: DVQLVESGGGLVQPGGSRRLSCAASGFTFSRFGMHWVRQAPEKGLEWVAYIRSGSDIIYYADSVKGRFTISRDNPENTLFLQMTSLRSEDTAMYYCARSGTTVPFDYWGQGTSLTVSS VL: DIVMTQSPSSLAMSVGQKVTMSCKSSQSLLNSGDQKNYLAWYQQKPGQSPELLLYFASTRASGVPDRFIGSGSGTDFSLTISSVQAEDLADYFCQQHYSIPLTFGAGTKLELKR : 1.2
2. ACI-7062-412A7-Ab1 (antibody, IgG2b, V domains shown) VH: DVQLVESGGGLVQPGGSRRLSCAASGFTFSSFGMHWVRQAPEKGLEWVAYIRSGSDIIYYADSVKGRFTISRDNPENTLFLQMTSLRSEDTAMYYCARSGTTVPFDYWGQGTSLTVSS VL: DIVMTQSPSSLAMSVGQKVTMSCKSSQSLLNSGNQKNYLAWYQQKPGQSPELLLYFASTRASGVPDRFIGSGSGTDFTLTISSVQAEDLADYFCQQHYSIPLTFGAGTKLELKR : 1.4
3. ACI-7062-416A11-Ab1 (antibody, IgG2a, V domains shown) VH: QVTLKESGPGILQSSQTLSLTCSFSGFSLSTYGIGVGWIRQPSGKGLEWLAHIWWNDNKYYNTALKSRLTISKDTSNNQVFLKIASVDTADAATYYCARVYGNLYYFGYWGQGTTLTVSS VL: DVLMTQTPLSLPVSLGDRASISCRSSQSIVHSSGNTYLEWYLQKPGQSPKLLIYKVSNRFSGVPDRFSGSGSGTDFTLKISRVEAEDLGVYYCFQGSRVPTFGAGTKLELKR : 0.9
4. ACI-7062-415C4-Ab1 (antibody, IgG1, V domains shown) VH: QVTLKESGPGILQPSQTLSLTCSFSGFSLSTYGIGVGWIRQPSGKGLEWLAHIWWNDNKYYKTALKSRLTISKDTSNNQVFLKIASVDTADSATYYCARVYGNLYYFGYWGQGTTLTVSS VL: DVLMTQTPLSLPVSLGDQASISCRSSQSIVHSTGNTYLEWYLQKPGQSPKLLIYKVSNRFSGVPDRFSGSGSGTDFTLKISRVEAEDLGVYYCFQGSRVPTFGAGTKLELKR : 1.2
5. ACI-7062-401A2-Ab2 (antibody, IgG1, V domains shown) VH: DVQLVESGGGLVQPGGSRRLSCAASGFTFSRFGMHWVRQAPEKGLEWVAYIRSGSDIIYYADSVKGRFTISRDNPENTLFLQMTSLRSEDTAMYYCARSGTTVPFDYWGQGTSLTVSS VL: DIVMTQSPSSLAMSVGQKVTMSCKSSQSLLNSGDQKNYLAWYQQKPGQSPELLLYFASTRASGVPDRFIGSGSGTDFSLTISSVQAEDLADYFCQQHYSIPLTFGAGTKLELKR : 1

Could you now consider this next binder?
Would you kindly share the measured OD (O.D. (405 nm)) for ACI-7062-404D6-Ab2 (antibody, IgG3, V domains shown) VH: QVTLKESGPGILQPSQTLSLTCSFSGFSLSTYGIGVGWIRQPSGKGLEWLAHIWWNDYKYYNTALKSRLTISKDTSNNRVFLKIASVDTADTATYYCARVYGNLYYFDYWGQGTTLTVSS VL: DVLMTQTPLSLPVSLGDQASISCRSSQSIVHGSGNTYLEWYLQKPGQSPKLLIYKVSNRFSGVPDRFSGSGSGTDFTLRISRVEAEDLGVYYCFQGSHVPTFGAGTKLELKR ?
0.9
